# reported inhibition; entries follow
molecular target: DNA topoisomerase 1 (Homo sapiens); assay: Inhibition of DNA topoisomerase 1 (unknown origin) assessed as reduction in relaxation of supercoiled pBR322 plasmid DNA at 100 uM incubated for 30 mins by agarose gel electrophoresis relative to control
Your answer should be a plain number; it is taken to be in %.

Below, each entry is followed by its recorded inhibition result.
>>> value_measured("O=C1O[C@@]23C[C@@H](C=CC2=C1C(O)c1cccc(F)c1)N1CCCC[C@@H]13 (some centres undefined)")
34.9
>>> value_measured("O=C1O[C@@]23C[C@@H](C=CC2=C1C(O)c1cccc([N+](=O)[O-])c1)N1CCCC[C@@H]13 (some centres undefined)")
36.2
>>> value_measured("O=C1O[C@@]23C[C@@H](C=CC2=C1C(O)c1cccc(Cl)c1)N1CCCC[C@@H]13 (some centres undefined)")
35.3

Now let's try a different one.
Name the reported inhibition value associated with the compound O=C1O[C@@]23C[C@@H](C=CC2=C1C(O)c1ccc([N+](=O)[O-])cc1[N+](=O)[O-])N1CCCC[C@@H]13 (some centres undefined)
43.1
